Test: COS7 lysate on small-molecule microarray, probe aHis, 635 nm (AID 1123);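 note: z-score combines 667nm fluorescence intensity with signal-to-noise per printed compound spot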
Details: COS7 cell lysate, fluorescence, higher = more signal
Response key: label 1 means composite z-score >= 2; label 0 means composite z-score < 2.

These solved cases illustrate the format of a correct answer.
compound	groupLabel
[N-]=[N+]=NCc1ccccc1C[C@]1(C(=O)O)N=C(c2ccc(OCCCO)cc2)O[C@H]1c1ccccc1N=[N+]=[N-]	label 1
C=CCOC(=O)[C@H]1[C@@H]2C(=O)O[C@@H](c3ccccc3)[C@@H](c3ccccc3)N2[C@@H](c2ccc(OCCOC(=O)[C@H]3C[C@H]4C(=O)N[C@@H](CC(C)C)C(=O)N4[C@H]3c3ccc(O)cc3)cc2)[C@]12C(=O)Nc1ccc(I)cc12	label 0
CN1C(=O)C2C=CC(C(O)c3ccc(I)cc3)N(N3CCCCC3)C2C1=O (centres undefined)	label 1

Exercise: Confirm if composite z-score reported for the compound CN1C(=O)C2C=CC(C(O)C3CCCCC3)N(Nc3ccc([N+](=O)[O-])cc3[N+](=O)[O-])C2C1=O (centres undefined) is 2 or above.
Solution: label 1

Exercise: Confirm if composite z-score reported for the compound COCCOC(=O)N1C(=O)[C@@]2(c3cc(C#CC4=CCCCC4)ccc31)[C@H](C(N)=O)[C@H]1C(=O)O[C@H](c3ccccc3)[C@H](c3ccccc3)N1[C@@H]2c1ccc(OCCO)cc1 is 2 or above.
Solution: label 0

Exercise: Confirm if composite z-score reported for the compound COc1ccc(CCNC(=O)[C@@]2(C)c3ccccc3C(=O)N(Cc3cc(F)cc(C(F)(F)F)c3)[C@H]2c2ccc(CO)cc2)cc1 is 2 or above.
Solution: label 0

Exercise: Confirm if composite z-score reported for the compound CN(C)C(=O)[C@]1(Cc2ccccc2CN=[N+]=[N-])N=C(c2ccc(OCCCO)cc2)O[C@@H]1c1ccccc1CN=[N+]=[N-] is 2 or above.
Solution: label 1

Exercise: Confirm if composite z-score reported for the compound CC(C)(C)OC(=O)CC[C@]12N=C(c3ccc(OCCCO)cc3)O[C@H]1c1ccccc1N(CCS(=O)(=O)c1ccccc1)C2=O is 2 or above.
Solution: label 1

Exercise: Confirm if composite z-score reported for the compound CC(C)C[C@@H]1NC(=O)[C@H]2C[C@@H](C(=O)NCCCCCCN)[C@@H](c3ccc(O)cc3)N2C1=O is 2 or above.
Solution: label 1

====

Target: Calmodulin-1 (Homo sapiens) (UniProt P0DP23)
Experiment: calcium-bound CALM1 binders on microarrays, profiling panel, artefact control for SMM control-protein annotation, biochemical, small-molecule microarray, Cy5-labelled CALM1, plus calcium (AID 1112);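 note: score merges spot fluorescence with signal to noise from triplicate slides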
Conditions: Cy5-CALM1 binding fluorescence, higher = more signal
parameter: composite z-score
API doc: respond with a numeric literal and nothing else, no unit.

These recorded examples may help you get a feel for the data.
compound	testedTarget	parameter	numericReadout
O=C1c2ccccc2[C@@]2(Cc3ccccc3N(CC(F)(F)F)C2=O)[C@H](c2ccc(CO)cc2)N1Cc1ccccc1Cl	Calmodulin-1 (Homo sapiens) (UniProt P0DP23)	composite z-score	-0.684
CCC(CC)C(O)C1C=CC2C(=O)N(C)C(=O)C2N1Nc1ccccc1 (stereo not given)	Calmodulin-1 (Homo sapiens) (UniProt P0DP23)	composite z-score	0.463
CC(C)C(=C=CC[C@@H](O)c1ccccc1OCCO)CCO	Calmodulin-1 (Homo sapiens) (UniProt P0DP23)	composite z-score	-0.21
COc1ccc(C(=O)Nc2cccc(CN3C(=O)[C@]4(O[C@H](CCO)[C@@H]([Si](C)(C)c5ccc(OC)cc5)[C@@H]4C)c4ccccc43)c2)cc1	Calmodulin-1 (Homo sapiens) (UniProt P0DP23)	composite z-score	0.0559
CCCC=C(CCC)[C@@H](NS(=O)(=O)c1cccs1)c1ccc(C(=O)OC)cc1	Calmodulin-1 (Homo sapiens) (UniProt P0DP23)	composite z-score	0.85

Exercise: Please give the documented composite z-score of C#CCN(CC1=CCCCC1)[C@H](c1ccccc1Br)[C@@H](O)Cc1ccccc1
Solution: -0.568

Exercise: Please give the documented composite z-score of O=C(NCc1ccc(F)cc1)[C@H]1C[C@H]2C(=O)N[C@@H](Cc3ccccc3)C(=O)N2[C@H]1c1ccc(O)cc1
Solution: 0.531

Exercise: Please give the documented composite z-score of COCCOC(=O)N1C(=O)[C@@]2(c3cc(C#CCCO)ccc31)[C@H](c1ccc(OCCO)cc1)N1[C@H](c3ccccc3)[C@H](c3ccccc3)OC(=O)[C@H]1[C@@H]2C(=O)N1CCN(c2ncccn2)CC1
Solution: -0.243

====

In this section, each of the compounds is paired with its reported z-score.
Experiment: modulators of HCV replicon luciferase signal, primary screen, HCV replication inhibitor project, Huh7 cells, luciferase reporter (AID 1109);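 note: huh7 hepatoma cells harbouring a luciferase neomycin HCV replicon reporter; luciferase luminescence as measure of HCV replicon replication; test concentration not given here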
Conditions: 48 h, higher = more signal
API doc: respond with a numeric literal and nothing else, no unit.

compound	z-score
CN(C)CCCNC(=O)[C@@]1(c2ccc([N+](=O)[O-])cc2)CC(=O)N(C2CCCCC2)[C@@H]1c1ccc(CO)cc1	-1.77

Exercise: Please give the documented z-score of C=CC[C@@]1(C(N)=O)N=C(c2ccc(OCCCO)cc2)O[C@@H]1c1ccccc1CN=[N+]=[N-]
Solution: -1.56

Exercise: Please give the documented z-score of Cc1ccc(C(C)CC(O)C2C=CC3C(=O)N(C)C(=O)C3N2NC(=O)OC(C)(C)C)o1 (centres undefined)
Solution: 0.255

Exercise: Please give the documented z-score of COCCCN1C(=O)[C@@]2(c3ccc([N+](=O)[O-])cc3)CC(=O)N(C3CCCCC3)[C@@H]2c2ccc(CO)cc21
Solution: -1.4

====

In this section, each of the compounds is paired with its reported composite z-score.
Assay: small-molecule binders of probe aNOTCH3, primary screen, biochemical, small-molecule microarray, 635/667 nm fluorescence (AID 1120);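 note: probe is a biotin-tagged antibody raised against NOTCH3 rather than NOTCH3 protein; score merges spot fluorescence near 667 nm with spot signal to noise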
Details: higher = more signal
API doc: respond with a numeric literal and nothing else, no unit.

These recorded examples may help you get a feel for the data.
compound	composite z-score
COC(=O)[C@@]1(Cc2ccc(F)cc2)[C@H]2c3cc(C(=O)N4CCCC4)n(Cc4cc(C)n(C)n4)c3C[C@H]2CN1C(=O)c1ccccc1	0.318
CC(=O)NCCCC[C@@H]1NC(=O)[C@@H]2C[C@H](C(=O)NCCCCN(C)C)[C@H](c3cccc(OCCO)c3)N2C1=O	-0.186

Exercise: Please give the documented composite z-score of COCCOC(=O)N1C(=O)[C@@]2(c3cc(C#CC4=CCCCC4)ccc31)[C@H](c1ccc(O)cc1)N1[C@H](c3ccccc3)[C@H](c3ccccc3)OC(=O)[C@H]1[C@@H]2C(N)=O
Solution: 0.092

Exercise: Please give the documented composite z-score of COCCOC(=O)N1C(=O)[C@@]2(c3cc(C#CC4=CCCCC4)ccc31)[C@H](C(=O)N1CCc3cc(OC)c(OC)cc3C1)[C@H]1C(=O)O[C@H](c3ccccc3)[C@H](c3ccccc3)N1[C@@H]2c1ccc(OCCO)cc1
Solution: 0.0836

Exercise: Please give the documented composite z-score of CCCCC(=C=CC[C@@H](O)c1ccccc1OCCO)CCO
Solution: -0.0321

Exercise: Please give the documented composite z-score of COc1ccc(C(=O)Nc2cccc(CN3C(=O)[C@]4(O[C@H](CCO)[C@@H]([Si](C)(C)c5ccc(OC)cc5)[C@@H]4C)c4ccccc43)c2)cc1
Solution: 0.0297

Exercise: Please give the documented composite z-score of C=CCNC(=O)[C@H]1[C@@H]2C(=O)O[C@@H](c3ccccc3)[C@@H](c3ccccc3)N2[C@@H](c2ccccc2OCCO)[C@]12C(=O)Nc1ccc(C#CC3=CCCCC3)cc12
Solution: 0.0942

Exercise: Please give the documented composite z-score of COCCCNC(=O)C1N=C(c2ccc(OCCCO)cc2)N(c2ccccc2)O1 (stereo not given)
Solution: 0.0836

Exercise: Please give the documented composite z-score of Cc1ccc(S[C@]2(C(=O)NCCN3CCOCC3)CC(=O)N(Cc3ccccc3Cl)[C@@H]2c2ccc(CO)cc2)cc1
Solution: -0.0362

====

Assay: small-molecule microarray binders of probe aCHRDL2, primary screen, biochemical, biotinylated probe, 635/667 nm fluorescence (AID 1100)
Conditions: higher = more signal
parameter: composite z-score

COC(=O)[C@@]1(Cc2ccccc2)[C@H]2c3cc(C(=O)N4CCCC4)n(Cc4nc5ccccc5[nH]4)c3C[C@H]2CN1C(=O)c1ccccc1 1.36
Cc1ccc(S[C@]2(C(=O)NC3CC3)CC(=O)N(C3Cc4ccccc4C3)[C@@H]2c2ccc(CO)cc2)cc1 0.806

Exercise: Please give the documented composite z-score of C=C(/C(=C/C[C@@H](OC(C)=O)c1ccc(OCCO)cc1)c1cnc2ccccc2c1)C(C)C
Solution: 0.0459

Exercise: Please give the documented composite z-score of C=CC[C@]1(C(=O)NCCCOC)N=C(c2ccc(OCCCO)cc2)O[C@H]1c1ccccc1N=[N+]=[N-]
Solution: 0.658

Origin of measurements: PubChem BioAssay
